# Test system: Candida albicans
# assay.notes: Tested in vitro for the minimum inhibitory concentration (MIC) against Candida albicans ATCC 24433
# Format: functional
Documented MIC across a set of molecules
Return type: number; implicit unit µg/mL.

Below: 4 molecules and their reported MIC.
molecule	system.under.test	readout.number
CC(C)C1=CC2CC3(C=O)[C@@H]4CC[C@@H](C)[C@H]4CC2(COC2CCCCC2)C13C(=O)O (stereo partly specified)	Candida albicans	0.125
OC(Cn1cncn1)(Cn1cncn1)c1ccc(F)cc1F	Candida albicans	0.5
CC(C)C1=CC2CC3(C=O)[C@@H]4CC[C@@H](C)[C@H]4CC2(CN(C)C2CCCCC2)C13C(=O)O (stereo partly specified)	Candida albicans	8
C/C=C/C=C\C(=O)O[C@H]1[C@H](O)[C@H](OCC23C[C@@H]4[C@H](C)CC[C@H]4C4(C=O)CC2C=C(C(C)C)C34C(=O)O)O[C@H](C)[C@H]1OC (stereo partly specified)	Candida albicans	0.5

Query molecule follows.
[in] Write down MIC measured for item CC(C)C1=CC2CC3(C=O)[C@@H]4CC[C@@H](C)[C@H]4CC2(CON=C2CCCCC2)C13C(=O)O (stereo partly specified)
[out] 0.031

* * *

The following compounds are listed with their measured MIC values.
# System: Candida albicans
# assay.notes: Tested in vitro for the minimum inhibitory concentration (MIC) against Candida albicans ATCC 24433
# Type: functional
Dear colleague, please return just the value in µg/mL, with no unit written.

compound	system.under.test	unit.tag	MIC
CC(C)C1=CC2CC3(C=O)[C@@H]4CC[C@@H](C)[C@H]4CC2(/C=N/OC2CCCCC2)C13C(=O)O (some centres undefined)	Candida albicans	µg/mL	0.031

[in] Tell us which MIC value is on record for CCC(C)n1ncn(-c2ccc(N3CCN(c4ccc(OC[C@H]5CO[C@](Cn6cncn6)(c6ccc(Cl)cc6Cl)O5)cc4)CC3)cc2)c1=O (some centres undefined)
[out] 0.125

[in] Supply reported MIC belonging to this compound: CC(C)C1=CC2CC3(C=O)[C@@H]4CC[C@@H](C)[C@H]4CC2(CSC2CCCCC2)C13C(=O)O (some centres undefined)
[out] 0.031

* * *

Listed here are compounds together with their documented MIC.
# Test system: Candida tropicalis
# assay.notes: Tested in vitro for the minimum inhibitory concentration (MIC) against Candida tropicalis ATCC750
# Format: functional

[in] Fill in MIC for record CCC(C)n1ncn(-c2ccc(N3CCN(c4ccc(OC[C@H]5CO[C@](Cn6cncn6)(c6ccc(Cl)cc6Cl)O5)cc4)CC3)cc2)c1=O (stereo not given in full)
[out] 0.5 µg/mL

[in] Return value of MIC for input CC(C)C1=CC2CC3(C=O)[C@@H]4CC[C@@H](C)[C@H]4CC2(/C=N/OC2CCCCC2)C13C(=O)O (stereo not given in full) , no commentary.
[out] 1 µg/mL

[in] Given CC(C)C1=CC2CC3(C=O)[C@@H]4CC[C@@H](C)[C@H]4CC2(C(=O)OC2CCCCC2)C13C(=O)O (stereo not given in full) , respond with its MIC.
[out] 4 µg/mL

[in] Please list MIC recorded for the compound CC(C)C1=CC2CC3(C=O)[C@@H]4CC[C@@H](C)[C@H]4CC2(C(=O)NC2CCCCC2)C13C(=O)O (stereo not given in full)
[out] > 4 µg/mL

[in] Please list MIC recorded for the compound OC(Cn1cncn1)(Cn1cncn1)c1ccc(F)cc1F
[out] 0.5 µg/mL

[in] Provide only the value of recorded MIC for CC(C)C1=CC2CC3(C=O)[C@@H]4CC[C@@H](C)[C@H]4CC2(CN(C)C2CCCCC2)C13C(=O)O (stereo not given in full)
[out] > 16 µg/mL

[in] Consider the compound C/C=C/C=C\C(=O)O[C@H]1[C@H](O)[C@H](OCC23C[C@@H]4[C@H](C)CC[C@H]4C4(C=O)CC2C=C(C(C)C)C34C(=O)O)O[C@H](C)[C@H]1OC (stereo not given in full) and give its recorded MIC.
[out] 0.5 µg/mL

[in] Output measured MIC for this item: CC(C)C1=CC2CC3(C=O)[C@@H]4CC[C@@H](C)[C@H]4CC2(CON=C2CCCCC2)C13C(=O)O (stereo not given in full)
[out] 1 µg/mL

[in] Please give measured MIC of the following entry: CC(C)C1=CC2CC3(C=O)[C@@H]4CC[C@@H](C)[C@H]4CC2(COC2CCCCC2)C13C(=O)O (stereo not given in full)
[out] 2 µg/mL

[in] Answer with the recorded MIC of CC(C)C1=CC2CC3(C=O)[C@@H]4CC[C@@H](C)[C@H]4CC2(CSC2CCCCC2)C13C(=O)O (stereo not given in full) only.
[out] 2 µg/mL

Source of measurements: ChEMBL document CHEMBL1135230
